biological target: Mitogen-activated protein kinase kinase kinase 5 (Homo sapiens) (UniProt Q99683)
Sequence (Q99683 whole entry): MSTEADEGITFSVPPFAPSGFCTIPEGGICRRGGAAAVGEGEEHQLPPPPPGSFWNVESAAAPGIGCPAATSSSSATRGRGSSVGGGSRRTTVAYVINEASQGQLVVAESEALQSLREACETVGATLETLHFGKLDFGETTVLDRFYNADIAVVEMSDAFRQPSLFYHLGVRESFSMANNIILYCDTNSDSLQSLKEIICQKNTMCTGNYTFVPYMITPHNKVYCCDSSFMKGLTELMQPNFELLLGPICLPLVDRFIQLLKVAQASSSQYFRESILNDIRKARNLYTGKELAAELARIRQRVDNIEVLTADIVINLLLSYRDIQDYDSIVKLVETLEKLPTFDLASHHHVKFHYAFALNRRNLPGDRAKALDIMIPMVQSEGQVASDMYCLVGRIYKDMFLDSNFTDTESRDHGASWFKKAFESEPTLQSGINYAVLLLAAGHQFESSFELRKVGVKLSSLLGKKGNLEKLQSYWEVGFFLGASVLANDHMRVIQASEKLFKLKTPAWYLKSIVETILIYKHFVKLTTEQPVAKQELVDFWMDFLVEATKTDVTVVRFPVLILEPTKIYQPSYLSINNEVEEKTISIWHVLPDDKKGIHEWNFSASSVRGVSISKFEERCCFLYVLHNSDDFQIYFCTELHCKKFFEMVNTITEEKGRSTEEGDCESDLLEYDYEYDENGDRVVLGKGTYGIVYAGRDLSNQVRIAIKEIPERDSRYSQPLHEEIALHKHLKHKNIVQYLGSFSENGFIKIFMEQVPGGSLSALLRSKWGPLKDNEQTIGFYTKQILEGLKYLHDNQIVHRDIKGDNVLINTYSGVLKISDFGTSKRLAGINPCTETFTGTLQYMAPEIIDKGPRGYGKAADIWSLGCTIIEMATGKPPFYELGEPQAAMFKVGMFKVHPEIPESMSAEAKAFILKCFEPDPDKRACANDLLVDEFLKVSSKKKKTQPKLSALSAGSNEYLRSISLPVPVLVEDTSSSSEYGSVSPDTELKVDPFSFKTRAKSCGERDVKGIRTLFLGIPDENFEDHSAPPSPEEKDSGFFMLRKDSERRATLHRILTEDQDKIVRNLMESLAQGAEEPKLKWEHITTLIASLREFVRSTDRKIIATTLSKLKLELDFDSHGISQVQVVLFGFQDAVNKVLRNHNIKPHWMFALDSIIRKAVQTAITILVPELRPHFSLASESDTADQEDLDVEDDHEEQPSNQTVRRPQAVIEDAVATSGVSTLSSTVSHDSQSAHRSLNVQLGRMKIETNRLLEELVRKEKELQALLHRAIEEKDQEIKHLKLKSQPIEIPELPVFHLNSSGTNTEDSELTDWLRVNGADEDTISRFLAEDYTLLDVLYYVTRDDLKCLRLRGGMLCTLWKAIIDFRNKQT
Response field label takes Criterion met when ΔTm is strictly below 0.2 °C and Criterion not met in all other cases.

Worked examples, 5 compounds total:
>  <Smiles repr>
Cn1cc(C2=C(c3cn(CCCN)c4ccccc34)C(=O)NC2=O)c2ccccc21

>  <Class name>
Criterion not met

$$$$
>  <Smiles repr>
CCN(CC)CCNC(=O)c1c(C)[nH]c(/C=C2\C(=O)Nc3ccc(F)cc32)c1C

>  <Class name>
Criterion met

$$$$
>  <Smiles repr>
COc1cc(O)c2c(c1)oc(=O)c1c3cc(O)c(O)cc3oc21

>  <Class name>
Criterion not met

$$$$
>  <Smiles repr>
CCOc1ccc(/C=C2/SC(=O)N(CCN)C2=O)cc1

>  <Class name>
Criterion not met

$$$$
>  <Smiles repr>
c1ccc(-c2n[nH]c3c2oc2ccccc23)cc1

>  <Class name>
Criterion not met

$$$$

Query block: Bench note: check whether "O=C1NC(=O)c2c1c1c3ccccc3n3c1c1c2c2ccccc2n1C1CCC3O1" shows ΔTm below 0.2 °C
Result block: Criterion not met

Query block: Is ΔTm strictly under 0.2 °C for the entry "COC1=C2C[C@@H](C)C[C@H](OC)[C@H](O)[C@@H](C)/C=C(\C)[C@H](OC(N)=O)[C@@H](OC)/C=C\C=C(/C)C(=O)NC(=CC1=O)C2=O" ?
Result block: Criterion met

Query block: Identify whether the compound "O=c1c(-c2ccc(F)cc2)c(-c2ccncc2)[nH]n1-c1ccc(Cl)cc1" records ΔTm below 0.2 °C.
Result block: Criterion not met

* * *

target: Serine/threonine-protein kinase Chk1 (Homo sapiens, UniProt O14757); experiment: Inhibition of Chk1
Sequence (O14757 whole entry): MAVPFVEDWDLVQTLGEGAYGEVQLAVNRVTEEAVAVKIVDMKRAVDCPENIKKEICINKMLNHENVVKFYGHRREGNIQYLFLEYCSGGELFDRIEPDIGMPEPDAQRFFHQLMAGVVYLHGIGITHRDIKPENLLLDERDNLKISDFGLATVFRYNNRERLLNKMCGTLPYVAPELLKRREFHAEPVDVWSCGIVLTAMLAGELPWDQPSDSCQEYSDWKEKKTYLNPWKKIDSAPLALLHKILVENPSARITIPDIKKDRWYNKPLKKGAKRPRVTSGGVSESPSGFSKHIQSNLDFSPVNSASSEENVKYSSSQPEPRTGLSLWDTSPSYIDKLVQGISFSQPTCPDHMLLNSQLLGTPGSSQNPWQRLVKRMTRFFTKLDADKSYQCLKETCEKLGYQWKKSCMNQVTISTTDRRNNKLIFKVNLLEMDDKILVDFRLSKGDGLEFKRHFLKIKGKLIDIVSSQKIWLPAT
Recorded IC50, one value per entry.
Return type: number; implicit unit µM.

# count of solved cases: 2
>  <Compound>
NC1=N/C(=C2/CCNC(=O)c3[nH]ccc32)C(=O)N1

>  <Outcome measure>
IC50

>  <Meas value>
3

$$$$
>  <Compound>
O=C1NC(=O)c2c1c1c3ccccc3[nH]c1n1cncc21 [ISOGRANULATIMIDE]

>  <Outcome measure>
IC50

>  <Meas value>
0.1

$$$$

Query block: For "CN1CCc2[nH]c(=S)c(C#N)c(-c3cccs3)c2C1" , what is its reported IC50?
Result block: 1.4

* * *

What follows is a collection of ΔTm values obtained with Mitogen-activated protein kinase 6 (Homo sapiens).
// note: answer is a bare numeric in °C

Worked examples follow.
>  <Compound>
C#Cc1cccc(Nc2ncnc3cc(OCCOC)c(OCCOC)cc23)c1

>  <Study target>
Mitogen-activated protein kinase 6 (Homo sapiens)

>  <ΔTm, °C>
0

$$$$
>  <Compound>
c1ccc(-c2n[nH]c3c2oc2ccccc23)cc1

>  <Study target>
Mitogen-activated protein kinase 6 (Homo sapiens)

>  <ΔTm, °C>
0.1

$$$$
>  <Compound>
O=C1NC(=O)C(c2c[nH]c3ccccc23)=C1c1c[nH]c2ccccc12

>  <Study target>
Mitogen-activated protein kinase 6 (Homo sapiens)

>  <ΔTm, °C>
0.5

$$$$
>  <Compound>
COc1cc2ncnc(Nc3ccc(F)c(Cl)c3)c2cc1OCCCN1CCOCC1

>  <Study target>
Mitogen-activated protein kinase 6 (Homo sapiens)

>  <ΔTm, °C>
0.8

$$$$
>  <Compound>
O=C1Nc2ccc(I)cc2/C1=C\c1cc(Br)c(O)c(Br)c1

>  <Study target>
Mitogen-activated protein kinase 6 (Homo sapiens)

>  <ΔTm, °C>
0.4

$$$$

Query block: // lookup ΔTm | system=Mitogen-activated protein kinase 6 (Homo sapiens) | key= "O=C(O)Cc1ccc(O)c([N+](=O)[O-])c1"
Result block: 0.8

Query block: Record lookup: for Mitogen-activated protein kinase 6 (Homo sapiens), what ΔTm belongs to "O=C1Nc2ccc(I)cc2/C1=C1/Nc2ccccc2/C1=N\O" ?
Result block: 0.5

Query block: # returns recorded ΔTm (system: Mitogen-activated protein kinase 6 (Homo sapiens)) for "NCCNc1ncc(C(N)=O)c(Nc2cccc(C(F)(F)F)c2)n1"
Result block: 3

Query block: Record "CN(c1cccnc1)c1cc2c(Nc3ccc(F)c(Cl)c3)c(C#N)cnc2cn1" : what is its ΔTm with Mitogen-activated protein kinase 6 (Homo sapiens)?
Result block: 4.2

Query block: Reported ΔTm for Mitogen-activated protein kinase 6 (Homo sapiens), given "O=c1cc(N2CCOCC2)oc2c(-c3ccccc3)cccc12" ?
Result block: 0.6

Query block: Value wanted: ΔTm (Mitogen-activated protein kinase 6 (Homo sapiens)) of entry O=C(Nc1cccc(Nc2nccc(Nc3cccc(C(F)(F)F)c3)n2)c1)C1CC1 [ANILINOPYRIMIDINE1]
Result block: 1.8

* * *

Parameter 'readout' = ΔTm; parameter 'system' = UniProt O15530.
Sequence (O15530 whole entry): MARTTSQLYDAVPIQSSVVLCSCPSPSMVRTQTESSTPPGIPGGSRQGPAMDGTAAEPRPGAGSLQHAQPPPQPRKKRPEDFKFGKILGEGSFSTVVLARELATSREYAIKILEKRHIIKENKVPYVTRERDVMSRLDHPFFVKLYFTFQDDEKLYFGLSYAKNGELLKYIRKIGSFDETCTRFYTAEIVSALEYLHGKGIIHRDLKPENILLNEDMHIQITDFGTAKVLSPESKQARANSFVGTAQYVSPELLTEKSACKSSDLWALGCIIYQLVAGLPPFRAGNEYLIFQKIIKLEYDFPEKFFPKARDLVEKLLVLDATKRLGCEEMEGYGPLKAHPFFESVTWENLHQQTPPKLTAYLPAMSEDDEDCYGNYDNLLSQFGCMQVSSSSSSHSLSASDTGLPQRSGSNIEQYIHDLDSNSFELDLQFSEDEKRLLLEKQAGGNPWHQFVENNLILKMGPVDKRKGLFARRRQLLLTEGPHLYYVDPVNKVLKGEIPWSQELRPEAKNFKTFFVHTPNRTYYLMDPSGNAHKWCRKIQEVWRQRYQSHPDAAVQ
Value expressed in °C; do not type the unit.

>  <Molecule>
COc1cc(C[C@H]2C(=O)OC[C@@H]2Cc2ccc(OC)c(OC)c2)ccc1O

>  <Outcome measure>
ΔTm

>  <Meas value>
0

$$$$
>  <Molecule>
O=C1Nc2ccccc2/C1=C1/Nc2ccccc2/C1=N\O

>  <Outcome measure>
ΔTm

>  <Meas value>
0.8

$$$$
>  <Molecule>
O=C(Nc1cccc(Nc2nccc(Nc3cccc(C(F)(F)F)c3)n2)c1)C1CC1

>  <Outcome measure>
ΔTm

>  <Meas value>
1.6

$$$$
>  <Molecule>
NC(=O)c1ccc2[nH]c(-c3ccc(Oc4ccc(Cl)cc4)cc3)nc2c1

>  <Outcome measure>
ΔTm

>  <Meas value>
-0.5

$$$$
>  <Molecule>
CC(C)(C)c1cc(C=C2C(=O)C=CC2=O)cc(C(C)(C)C)c1O

>  <Outcome measure>
ΔTm

>  <Meas value>
-0.1

$$$$

Query block: For "O=C(O)c1cc(NCc2cc(O)ccc2O)ccc1O" , what is its reported ΔTm?
Result block: 0.2

Query block: Query (molecule): "O=c1cc(-c2ccc(O)cc2)oc2cc(O)cc(O)c12" ; field requested: ΔTm
Result block: -1.9

Query block: Can you share its ΔTm? I mean this molecule: "COc1cc(O)c2c(c1)oc(=O)c1c3cc(O)c(O)cc3oc21"
Result block: -0.4

Query block: Please report the recorded ΔTm for "C[C@@H]1C[C@H]2O[C@@H]2/C=C\C=C\C(=O)Cc2c(Cl)c(O)cc(O)c2C(=O)O1" .
Result block: 0.2

Query block: Look up ΔTm: "CN[C@@H]1CC2O[C@@](C)([C@@H]1OC)n1c3ccccc3c3c4c(c5c6ccccc6n2c5c31)C(=O)NC4"
Result block: -0.7

Query block: Which ΔTm is reported for this molecule? CSc1nc(-c2ccc(F)cc2)c(-c2ccnc(NC(C)c3ccccc3)c2)[nH]1 (racemic)
Result block: -0.9

Query block: I have this molecule here, "Cc1ccc(NC2=CC(=O)c3sc(C)nc3C2=O)cc1" , and I need its recorded ΔTm.
Result block: -3.4

Query block: Entry "O=C1Nc2ccccc2/C1=C/c1cnc[nH]1" has what ΔTm?
Result block: 1.3

Query block: GET /values?readout=ΔTm&item= "O=C1NC(=O)C(c2cn(CCCn3ccnc3)c3ccccc23)=C1Nc1ccccc1"
Result block: 0.1

Query block: Param item = "N=C(N)NCCNS(=O)(=O)c1cccc2cnccc12" ; retrieve measured ΔTm.
Result block: -0.3

Query block: Endpoint output: ΔTm of "CC(C)(C)n1nc(-c2ccc(Cl)cc2)c2c(N)ncnc21" . Value?
Result block: -0.1

Query block: May I ask what ΔTm has been recorded for "CC(C)n1cnc2c(NCc3ccccc3)nc(NCCCO)nc21" ?
Result block: 0.1

Query block: Can you share its ΔTm? I mean this molecule: "COC1=C2C[C@@H](C)C[C@H](OC)[C@H](O)[C@@H](C)/C=C(\C)[C@H](OC(N)=O)[C@@H](OC)/C=C\C=C(/C)C(=O)NC(=CC1=O)C2=O"
Result block: 0

Query block: Fill blank: measured ΔTm of the molecule "CCCNC(=O)Nc1ccc(Oc2ncnc3cc(OC)c(OC)cc23)cc1Cl" is ____.
Result block: -0.1

Query block: Reported ΔTm for "O=[N+]([O-])c1ccc(-c2nc(-c3ccc(F)cc3)c(-c3ccncc3)[nH]2)cc1" : what is it?
Result block: -0.1

Query block: State the recorded ΔTm for this entry: "Cn1cc(/C=C2/C(=O)Nc3ccc(S(N)(=O)=O)cc32)c2ccccc21"
Result block: 0.2

Query block: // returns reported ΔTm for input "Clc1ccc(Nc2nnc(Cc3ccncc3)c3ccccc23)cc1"
Result block: 4

* * *

target: Dual specificity mitogen-activated protein kinase kinase 2 (Homo sapiens)
Sequence (P36507 whole entry): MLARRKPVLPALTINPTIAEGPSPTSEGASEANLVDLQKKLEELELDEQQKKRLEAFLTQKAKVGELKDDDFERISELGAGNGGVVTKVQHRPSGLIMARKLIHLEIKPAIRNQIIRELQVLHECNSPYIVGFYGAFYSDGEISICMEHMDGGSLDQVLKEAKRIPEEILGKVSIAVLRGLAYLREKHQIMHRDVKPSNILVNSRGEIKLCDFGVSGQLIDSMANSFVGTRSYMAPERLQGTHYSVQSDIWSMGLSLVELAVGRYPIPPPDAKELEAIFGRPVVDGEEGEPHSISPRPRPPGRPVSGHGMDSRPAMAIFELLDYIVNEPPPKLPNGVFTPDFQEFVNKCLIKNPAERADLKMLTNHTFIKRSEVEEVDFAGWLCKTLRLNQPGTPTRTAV
Field: label. Allowed values: MET (ΔTm < 0.1 °C) or NOT MET (ΔTm >= 0.1 °C).

// below: answered molecules
>  <Molecule>
CCOC(=O)c1cnc2oc3ccc(O)cc3c2c1-c1ccccc1

>  <Class name>
NOT MET

$$$$
>  <Molecule>
COC1=C2C[C@@H](C)C[C@H](OC)[C@H](O)[C@@H](C)/C=C(\C)[C@H](OC(N)=O)[C@@H](OC)/C=C\C=C(/C)C(=O)NC(=CC1=O)C2=O

>  <Class name>
MET

$$$$
>  <Molecule>
N#C/C(=C1/Nc2ccccc2S1)c1ccnc(NCCc2cccnc2)n1

>  <Class name>
NOT MET

$$$$
>  <Molecule>
Oc1cccc(-c2nc(N3CCOCC3)c3oc4ncccc4c3n2)c1

>  <Class name>
NOT MET

$$$$
>  <Molecule>
N#CCCc1ccc2c(c1)-c1[nH]c3ccc([N+](=O)[O-])cc3c1CC(=O)N2

>  <Class name>
NOT MET

$$$$
>  <Molecule>
NC(=O)c1ccc(-c2nc(-c3ccc4c(c3)OCCO4)c(-c3ccccn3)[nH]2)cc1

>  <Class name>
MET

$$$$
>  <Molecule>
Cn1cc(C2=C(c3cn(CCCN)c4ccccc34)C(=O)NC2=O)c2ccccc21

>  <Class name>
NOT MET

$$$$
>  <Molecule>
OC[C@H]1O[C@@H](n2cnc3cc(Cl)c(Cl)cc32)[C@H](O)[C@@H]1O

>  <Class name>
MET

$$$$

Query block: Could you please tell me whether ΔTm recorded for "O=C1Cc2c([nH]c3ccc(Br)cc23)-c2ccccc2N1" is less than 0.1 °C?
Result block: MET

Query block: Record O=C1NC(=O)c2c1c1c3ccccc3[nH]c1n1cncc21 [ISOGRANULATIMIDE] : is its ΔTm strictly below 0.1 °C?
Result block: NOT MET

Query block: Please determine if "C[C@@H]1C[C@H]2O[C@@H]2/C=C\C=C\C(=O)Cc2c(Cl)c(O)cc(O)c2C(=O)O1" is below 0.1 °C in terms of ΔTm.
Result block: MET

Query block: Decide: ΔTm of "CCOc1cc(/C=C(\C#N)C(N)=O)cc(CSc2ccccc2)c1O" strictly below 0.1 °C?
Result block: NOT MET

Query block: is_below(ΔTm, 0.1 °C) for "CCOC(=O)c1c(C)[nH]c(/C=C2\C(=O)Nc3ccccc32)c1C" ?
Result block: NOT MET

Query block: ΔTm under 0.1 °C? Item: "O=S(=O)(c1cccc2c(Cl)cccc12)N1CCCNCC1"
Result block: MET

Query block: Please determine if "Oc1cc(O)cc(/C=C/c2ccc(O)c(O)c2)c1" is below 0.1 °C in terms of ΔTm.
Result block: NOT MET

Query block: I'd appreciate it if you could check whether "O=[N+]([O-])c1ccc(-c2nc(-c3ccc(F)cc3)c(-c3ccncc3)[nH]2)cc1" has ΔTm smaller than 0.1 °C.
Result block: NOT MET
